Quick reference: % positive cells of the listed items.
target: T1, human CCR8 (human, UniProt P51685 1-355); test: flow cytometry, hCCR8 transfected CHOK1 cells
T1 construct: the cells are named under assay; also called hCCR8
Observable: % positive cells (%)

Binder	Observable	Measurement unit	Reading
3-5 (antibody, V domains shown) VH: EVQLLESGGGLVQPKGSLKLSCAASGFTFNPYAMNWVRQAPGRGLEWVARIRSKSNNYATYYADSVKDRFTISRDDSQDMLYLQMNNLKTEDTAMYYCVRGREAYYRYDGDYYAMDYWGQGTSVTVSS VL: DIVMTQAAPSVPVTPGESVSISCRSSKSLLHSNGNTYLYWFLQRPGQSPQLLIYRMSNLASGVPDRFSGSGSGTAFTLRISRVEAEDVGVYYCMQHLEYPFTFGSGTKLEIK	% positive cells	%	72.8
3-14 (antibody, V domains shown) VH: EVQLVESGGGLVQPTGSLRLSCAASGFTFNAYAMNWVRQAPGKGLEWVARIRSKSNDYATYYGDSVKDRFTISRDDSQSMLYLQMNNLKTEDTAMYYCVRGREAYYRYDGGYYAMDYWGQGTSVTVSS VL: DIVMTQAAPSVSVTPGESVSISCTSSKSLLHSNGNTYLYWFLQRPGQSPQLLIYRMSNLASGVPDRFSGSGSGTAFTLRISRVEAEDVGVYYCMQHREYPFTFGSGTKLEIK	% positive cells	%	66.8
3-21 (antibody, V domains shown) VH: QVQLKESGPGLVAPSQSLSITCTVSGLSMNDYVVTWIRQPPGKGLEWLGVIWGGGNTYYNSDLKSRLSITKDNSKSQVFFKMSSLQTDDTAVYYCARRHRDYALDYWGQGISVTVSS VL: DVVMTQTPLSLPVSLGDQASISCRSSQSLVYSNGNTYLHWYLQKPGQSPKLLIYKVSNRFSGVPDRFSGSGSGTDFTLKISRVEAEDLGVYFCSQSTYVPPTFGGGTKLEIK	% positive cells	%	85.2

Data origin: patent US20260234276A1
